system: HL-60(TB) leukemia; assay: NCI-60 one-dose screen, 48 h (100 = growth as untreated, 0 = no growth, -100 = all killed); conditions: 10 µM unless noted
The panel holds about 83,000 compounds, 20% with a hit somewhere; the sample as a whole holds those more often.

[
  {
    "COMPOUND": "Clc1ccccc1-c1cnn2cc(-c3ccccc3)cnc12",
    "growth (%)": 96.2
  },
  {
    "COMPOUND": "COc1ccc(-c2cn(-c3ccc(Cl)cc3)c(=S)[nH]2)cc1OC",
    "growth (%)": 56.1
  },
  {
    "COMPOUND": "N=c1c2c(=N)n3c(nc2nc2n1-c1ccccc1Sc1ccccc1-2)sc1cc(Cl)ccc13",
    "growth (%)": 50.3
  },
  {
    "COMPOUND": "COc1cc(/C=C/C(=O)c2c(C)[n+]([O-])c3ccccc3[n+]2[O-])ccc1O",
    "growth (%)": 102
  },
  {
    "COMPOUND": "CCOC(=O)c1cc2c(n1Cc1cc(OC)cc(OC)c1)-c1oncc1CCC2",
    "growth (%)": 5.41
  },
  {
    "COMPOUND": "Cc1nnc(/N=C2\\NC(=O)/C(=C/c3ccsc3)S2)s1",
    "growth (%)": 102
  },
  {
    "COMPOUND": "Cc1ccc(C)c2c1CCC2C(C)C (stereo unspecified)",
    "growth (%)": 108
  },
  {
    "COMPOUND": "CC(C)OCCCNCC(=O)Nc1ccc(S(=O)(=O)c2ccc(NC(=O)CNCCCOC(C)C)cc2)cc1",
    "growth (%)": 82.1
  },
  {
    "COMPOUND": "COc1ccc(CC(C)=C(c2ccc(OCCN3CCCCCC3)cc2)c2ccc(OCCN3CCCCCC3)cc2)cc1",
    "growth (%)": -59.8
  },
  {
    "COMPOUND": "O=c1nc(-c2ccccc2)c2cc(-c3ccc(N4CCOCC4)cc3)ccc2[nH]1",
    "growth (%)": 63.5
  },
  {
    "COMPOUND": "COc1cc(/C=C/C(=O)c2ccc(F)cc2)ccc1OCCCCOc1ccc(/C=C/C(=O)c2c(C)nc3ccccc3c2C)cc1OC",
    "growth (%)": 79.8
  },
  {
    "COMPOUND": "CN(C)CCCN1c2ccccc2CCc2ccc(Cl)cc21",
    "growth (%)": 80.2
  },
  {
    "COMPOUND": "COc1ncnc2c1cnn2C",
    "growth (%)": 114
  },
  {
    "COMPOUND": "C=CCNC(=O)/C(=C/c1cccc([N+](=O)[O-])c1)NC(=O)c1ccccc1",
    "growth (%)": 137
  },
  {
    "COMPOUND": "Cc1ccc(NC(=O)c2cc(-c3nc4ccccc4s3)c(=O)n(NS(=O)(=O)c3ccc(Cl)cc3)c2N)cc1",
    "growth (%)": 101
  },
  {
    "COMPOUND": "CN1C(=O)N(C)C2C1NN=c1s/c(=C\\c3ccc(Cl)cc3Cl)c(=O)n12 (stereo unspecified)",
    "growth (%)": -26.9
  },
  {
    "COMPOUND": "C1CN(CC2CCC(CN3CCOCC3)O2)CCO1 (stereo unspecified)",
    "growth (%)": 87
  },
  {
    "COMPOUND": "c1ccc2nc(N3CCOCC3)c(N3CCCCC3)nc2c1",
    "growth (%)": 98.9
  },
  {
    "COMPOUND": "Cc1ccc(Cn2cc(COc3ccc4c5ccnc(C)c5n(CCCc5ccccc5)c4c3)nn2)cc1",
    "growth (%)": 77.6
  },
  {
    "COMPOUND": "Cc1ccc2nc(/C(C#N)=C(/CCCO)NC(Cc3ccccc3)C(=O)OCc3ccccc3)[nH]c(=O)c2c1 (stereo unspecified)",
    "growth (%)": 122
  },
  {
    "COMPOUND": "COc1cc2c(cc1OC)[C@H](C(=O)O)[C@@H](c1ccc(OC(C)C)c(OC)c1)N(C)C2=O",
    "growth (%)": 94.9
  }
]

====

Recorded growth by entry
system: HL-60(TB) leukemia; test: NCI-60 one-dose screen, 48 h (100 = growth as untreated, 0 = no growth, -100 = all killed); settings: 10 µM unless noted
About 83,000 compounds went through this panel and 20% of them were active in at least one assay; those are over-represented in the sample as a whole.

[
  {
    "MOLECULE": "C=C(C)[C@@H]1CC[C@]2(C(=O)O)CC[C@]3(C)[C@H](CC[C@@H]4[C@@]5(C)C[C@@H](CC#Cc6ccc(C(C)=O)s6)[C@H](O)C(C)(C)[C@@H]5CC[C@]43C)[C@@H]12",
    "TARGET_OR_TEST_SYSTEM": "HL-60(TB) leukemia",
    "growth [%]": 54
  },
  {
    "MOLECULE": "CC(C)[C@H](CO)Nc1nc(Nc2ccc(C(=O)NCCNS(=O)(=O)c3cccc4c(N(C)C)cccc34)c(Cl)c2)c2ncn(C(C)C)c2n1",
    "TARGET_OR_TEST_SYSTEM": "HL-60(TB) leukemia",
    "growth [%]": -36.7
  },
  {
    "MOLECULE": "C=C1CCC2C3(C)COC(c4ccc(OC)cc4Br)OC3CCC2(C)C1/C=C/C1=CCOC1=O (stereo not given)",
    "TARGET_OR_TEST_SYSTEM": "HL-60(TB) leukemia",
    "growth [%]": 31.8
  },
  {
    "MOLECULE": "CCN(CC)CCNc1ccc(CO)c2oc3cc(Cl)ccc3c(=O)c12",
    "TARGET_OR_TEST_SYSTEM": "HL-60(TB) leukemia",
    "growth [%]": 111
  },
  {
    "MOLECULE": "CCN1C(=O)N(CC)C2NC(SC)=NC21 (stereo not given)",
    "TARGET_OR_TEST_SYSTEM": "HL-60(TB) leukemia",
    "growth [%]": 103
  },
  {
    "MOLECULE": "N/C(=N\\C(N)=N\\c1nc2ccccc2s1)c1cnccn1",
    "TARGET_OR_TEST_SYSTEM": "HL-60(TB) leukemia",
    "growth [%]": 0.412
  },
  {
    "MOLECULE": "N#Cc1c(-c2ccccn2)[nH]c(=S)[nH]c1=O",
    "TARGET_OR_TEST_SYSTEM": "HL-60(TB) leukemia",
    "growth [%]": 94.9
  },
  {
    "MOLECULE": "CCc1ccc(C(=Nc2ccc(N(C)C(=O)CN3CCN(C)CC3)cc2)c2c(O)[nH]c3ccc(C(=O)OC)cc23)cc1",
    "TARGET_OR_TEST_SYSTEM": "HL-60(TB) leukemia",
    "growth [%]": -67
  },
  {
    "MOLECULE": "C[CH2][Pb]([CH2]C)([CH2]C)[O]C(=O)COC",
    "TARGET_OR_TEST_SYSTEM": "HL-60(TB) leukemia",
    "growth [%]": -50
  },
  {
    "MOLECULE": "Cc1cc(Nc2nc(C(=O)Nc3ccccc3)nc3ccccc23)n[nH]1",
    "TARGET_OR_TEST_SYSTEM": "HL-60(TB) leukemia",
    "growth [%]": 63.5
  },
  {
    "MOLECULE": "Clc1ccc(/C=C/c2nc(Nc3ccc(Cl)cc3)c3ccccc3n2)cc1",
    "TARGET_OR_TEST_SYSTEM": "HL-60(TB) leukemia",
    "growth [%]": 102
  },
  {
    "MOLECULE": "COc1ccc(C(=O)c2cc3c(N)c(C(=O)Nc4cccc(Br)c4C)sc3nc2C)cc1",
    "TARGET_OR_TEST_SYSTEM": "HL-60(TB) leukemia",
    "growth [%]": -58.7
  },
  {
    "MOLECULE": "CCOC(=O)Nc1ccc2nc(Sc3ccc(Cl)cc3)sc2c1",
    "TARGET_OR_TEST_SYSTEM": "HL-60(TB) leukemia",
    "growth [%]": 10.1
  },
  {
    "MOLECULE": "Cc1nn(-c2nc3ccccc3[nH]2)c2c1C(c1ccc3c(c1)OCO3)CC(=O)N2 (stereo not given)",
    "TARGET_OR_TEST_SYSTEM": "HL-60(TB) leukemia",
    "growth [%]": -24.3
  },
  {
    "MOLECULE": "COc1ccc(C2Nc3nc(SC)nc(N)c3N=C3c4ccccc4CCC32)cc1 (stereo not given)",
    "TARGET_OR_TEST_SYSTEM": "HL-60(TB) leukemia",
    "growth [%]": 71.1
  },
  {
    "MOLECULE": "Cc1ccc(OCCOCCOCCOCCOCCOc2ccc(C)n(O)c2=S)c(=S)n1O",
    "TARGET_OR_TEST_SYSTEM": "HL-60(TB) leukemia",
    "growth [%]": -16.5
  },
  {
    "MOLECULE": "COc1ccc(OC)c(/C=C/C(=O)N/N=C/c2ccc(Cl)cc2)c1",
    "TARGET_OR_TEST_SYSTEM": "HL-60(TB) leukemia",
    "growth [%]": 20.1
  },
  {
    "MOLECULE": "CCCCCCCCCc1ccc(OC(C)=O)cc1",
    "TARGET_OR_TEST_SYSTEM": "HL-60(TB) leukemia",
    "growth [%]": 108
  },
  {
    "MOLECULE": "O=C(COc1cccc(/C=C2\\CSc3ccc(Cl)cc3C2=O)c1)c1ccc(Cl)cc1",
    "TARGET_OR_TEST_SYSTEM": "HL-60(TB) leukemia",
    "growth [%]": 79.2
  },
  {
    "MOLECULE": "COc1ccc(-c2nn(-c3ccc(NC(=O)Nc4ccc(Cl)c(Cl)c4)cc3)cc2-c2ccncc2)cc1Cl",
    "TARGET_OR_TEST_SYSTEM": "HL-60(TB) leukemia",
    "growth [%]": 5.24
  }
]
